Assay: Toxicity liver stage against HepG2, at 10uM
Format: cell-based
Set-up: test concentration 10 uM, cell line HepG2-A16-CD81EGFP
Conditions: human, HepG2-A16-CD81EGFP cells; read-out: INHIBITION
METRIC: cytotoxicity at 10 µM
The answer should read as a number with its unit following.

Record excerpt, results attached:
MOLECULE: COCc1cccc(S(=O)(=O)N2CCSCC2)c1
cytotoxicity at 10 µM: 8.19%
//
MOLECULE: Cc1ccc(CNc2nc(O)cc(C3CC(=O)N(C)C3)n2)cc1 (stereo not drawn)
cytotoxicity at 10 µM: -17.8%
//
MOLECULE: CC(C)CN1C(=O)C2(CCCC2)NC1c1c[nH]nc1-c1cccnc1 (stereo not drawn)
cytotoxicity at 10 µM: 7.76%
//
MOLECULE: Cc1occc1C(=O)NCC(=O)NCCCOc1ccc(F)cc1
cytotoxicity at 10 µM: -45.1%
//
MOLECULE: CN(C)C(=O)COCC1CN(C2CCC2)Cc2ncn(C)c21 (stereo not drawn)
cytotoxicity at 10 µM: 14.1%
//
MOLECULE: CCOc1cc(C)c(-c2cc(N)[nH]n2)cc1OCC
cytotoxicity at 10 µM: -7.27%

Exercise: Consider the molecule `CCC(=O)NCCc1cc2nc(-c3ccncc3)ccn2n1` and give its measured cytotoxicity at 10 µM.
Solution: 1.65%

Exercise: `Cc1nc(CC(C)C)cc(C(=O)N2C[C@@H](N(C)C)[C@H](C(C)C)C2)n1` , same question.
Solution: 9.26%

====

Experiment: Toxicity liver stage against HepG2, at 10uM
Type: cell-based
Parameters: test concentration 10 uM, cell line HepG2-A16-CD81EGFP
Settings: human, HepG2-A16-CD81EGFP cells; read-out: INHIBITION
METRIC: cytotoxicity at 10 µM (%)
# unit: % | format: bare number

Look over these answered cases.
COMPOUND: O=C(CCc1nccs1)N1CCN(c2nccs2)CC1
EXPERIMENTAL VALUE: -21.8
//
COMPOUND: c1csc(NCc2n[nH]c3c2CCN(CC2CC2)C3)n1
EXPERIMENTAL VALUE: -0.733
//
COMPOUND: CCNc1ncc(C(=O)NCc2cccc(OC(F)(F)F)c2)cn1
EXPERIMENTAL VALUE: -2.94

Exercise: Would you mind telling me what cytotoxicity at 10 µM value was observed for CCCN1CCCC2(CCN(Cc3cncn3C3CCCC3)C2)C1=O (stereo unspecified) ?
Solution: -13

Exercise: Cool, now `COCC(=O)NCCc1nc(N(C)C)ncc1-c1ccncc1`
Solution: -3.46

Exercise: Also `NC(=O)NC(=O)CCn1ccc(-c2ccsc2)n1` ?
Solution: 8.56

Exercise: Request: COc1ccc(F)cc1C(C)NC(=O)Nc1nnc(C)s1 (stereo unspecified)
Solution: -1.01

Exercise: Next compound: `Cc1ccccc1NC(=O)N1CCN(C(=O)C2CC2)[C@@H]2CS(=O)(=O)C[C@@H]21`
Solution: 2.78

Exercise: Okay, and CC(C)c1noc(C(C)N2CCN(Cc3noc(C4CC4)n3)CC2)n1 (stereo unspecified) ?
Solution: 3.01

Exercise: // same read-out, input: COCCCN1CCCN(C(C)C(=O)Nc2ccnn2C(C)C)CC1 (stereo unspecified)
Solution: -8.8

Exercise: What do you get for CN1CCOC(CNCc2cccc(OCc3ccccn3)c2)C1 (stereo unspecified) ?
Solution: -16.5
